- Assayed system: 1-phosphatidylinositol 4,5-bisphosphate phosphodiesterase gamma-1 (Homo sapiens) (UniProt P19174)
- Sequence (P19174 whole entry, looked up): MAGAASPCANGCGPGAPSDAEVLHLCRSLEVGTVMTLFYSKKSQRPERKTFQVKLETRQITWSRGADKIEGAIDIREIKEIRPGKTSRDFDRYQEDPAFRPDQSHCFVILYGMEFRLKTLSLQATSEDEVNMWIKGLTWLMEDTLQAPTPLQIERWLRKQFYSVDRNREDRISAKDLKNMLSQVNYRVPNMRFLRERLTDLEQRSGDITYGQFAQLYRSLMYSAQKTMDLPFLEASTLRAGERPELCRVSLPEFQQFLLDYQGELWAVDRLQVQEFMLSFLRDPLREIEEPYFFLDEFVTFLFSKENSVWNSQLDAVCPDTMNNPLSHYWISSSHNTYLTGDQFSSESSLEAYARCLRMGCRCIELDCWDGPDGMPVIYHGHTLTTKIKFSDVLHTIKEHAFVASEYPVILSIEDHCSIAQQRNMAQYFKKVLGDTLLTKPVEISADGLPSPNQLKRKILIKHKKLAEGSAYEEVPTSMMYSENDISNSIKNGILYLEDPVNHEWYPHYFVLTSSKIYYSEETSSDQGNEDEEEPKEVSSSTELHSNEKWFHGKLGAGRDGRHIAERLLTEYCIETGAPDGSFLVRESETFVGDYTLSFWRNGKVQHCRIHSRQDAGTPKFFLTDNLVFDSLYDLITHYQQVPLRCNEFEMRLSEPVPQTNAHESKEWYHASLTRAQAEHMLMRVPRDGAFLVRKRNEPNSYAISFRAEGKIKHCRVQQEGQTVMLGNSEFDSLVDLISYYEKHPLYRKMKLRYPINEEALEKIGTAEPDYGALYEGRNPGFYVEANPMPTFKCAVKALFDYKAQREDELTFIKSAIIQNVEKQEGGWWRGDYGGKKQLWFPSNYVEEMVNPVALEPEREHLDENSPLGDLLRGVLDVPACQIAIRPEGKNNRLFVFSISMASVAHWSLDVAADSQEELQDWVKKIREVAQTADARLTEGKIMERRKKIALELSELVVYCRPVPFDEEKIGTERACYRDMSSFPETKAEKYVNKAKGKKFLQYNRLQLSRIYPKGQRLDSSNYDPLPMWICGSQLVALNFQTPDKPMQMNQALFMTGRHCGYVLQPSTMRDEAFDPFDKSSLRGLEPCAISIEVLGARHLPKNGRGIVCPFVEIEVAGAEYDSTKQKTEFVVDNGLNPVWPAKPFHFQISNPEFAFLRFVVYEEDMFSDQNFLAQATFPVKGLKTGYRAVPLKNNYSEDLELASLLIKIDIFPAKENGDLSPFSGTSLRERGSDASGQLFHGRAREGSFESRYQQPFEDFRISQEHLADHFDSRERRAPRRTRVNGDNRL
- Assay name: PLC-gamma1 enzyme inhibitors, primary screen, biochemical, fluorescence, purified enzyme (AID 720700)
- Recorded conditions: purified PLC-gamma1, fluorogenic substrate, at 12.2 µM, active compounds read high
In all, about 370,000 compounds went through this assay and about 3,100 (0.84%) were called active. Shown is part of a subset that was picked to be rich in actives.
Measured attribute: inhibition (%)
All answers are understood in %, so give the number only.

# count of solved cases: 6
>  <Compound>
O=C1c2ccccc2S(=O)(=O)N1Cc1c(F)cccc1Cl

>  <Assay result>
-1.51

$$$$
>  <Compound>
Nn1c(SCC(=O)Nc2cccc3ccccc23)nnc1-c1cc(-c2ccc(F)cc2)n[nH]1

>  <Assay result>
-1.09

$$$$
>  <Compound>
O=C(CCl)NC1CCCCN(Cc2cccc(C(F)(F)F)c2)C1=O (stereo not given)

>  <Assay result>
-1.65

$$$$
>  <Compound>
c1coc(CCNc2ncnc3ccc(-c4ccc5c(c4)OCO5)cc23)c1

>  <Assay result>
-114

$$$$
>  <Compound>
O=C(CSc1nnc(-c2ccccc2)n1Cc1ccco1)Nc1ccccc1-c1ccccc1

>  <Assay result>
8.54

$$$$
>  <Compound>
COc1ccnc(NC(=S)N2CCN(c3ncc(C(F)(F)F)cc3Cl)CC2)c1

>  <Assay result>
4.36

$$$$

Q. Param item = Cc1ccc(C(=O)Nc2ccc(C)c(S(=O)(=O)N(C)C)c2)s1 ; retrieve measured inhibition.
A. 12.1

Q. Same for CCCCCN1CCCCC(NC(=O)C(C)CCC)C1=O (stereo not given)
A. 0.76

Q. Same for Cc1ccc(-c2nnc(SCC(=O)Nc3ccc(Oc4ccccc4)cc3)n2Cc2ccco2)cc1
A. -3.01

Q. Same for CCN(CC(=O)Nc1ccc(C)c(S(=O)(=O)N(C)C)c1)Cc1ccccc1
A. 0.58
